Below are log10(IC50) values for UniProt:P51677 collected from several publications.
Scale: log10; quantity: IC50; unit before log: nM

Lookup: What value of log10(IC50) has been reported for the following compound? CC(C)C(CN1CCN(Cc2ccc(Cl)cc2)CC1)NC(=S)Nc1cccc2ccccc12 (centres unmarked)
Found: 3.45

Lookup: What value of log10(IC50) has been reported for the following compound? `COc1ccc(C#N)cc1/C=C/C(=O)N[C@H](Cc1ccco1)CN1CCC(C(=O)c2ccc(F)cc2)CC1`
Found: 0.30

Lookup: What value of log10(IC50) has been reported for the following compound? `COc1ccc(C#N)cc1/C=C/C(=O)N[C@H](CO)CN1CCC(C(=O)c2ccc(Cl)cc2)CC1`
Found: 1.15

Lookup: What value of log10(IC50) has been reported for the following compound? `Cn1nc(C2CC2)cc1NC(=O)N[C@H](CO)CCN1CC(Oc2ccc(Cl)cc2)C1`
Found: 0.70

Lookup: What value of log10(IC50) has been reported for the following compound? CCCC(CN1CCN(Cc2ccc(Cl)c(Cl)c2)CC1)NC(=O)c1ccc(C)cc1 (centres unmarked)
Found: 3.12

Lookup: What value of log10(IC50) has been reported for the following compound? `COc1ccc(Br)cc1/C=C/C(=O)N[C@H](Cc1cccnc1)CN1CCC(C(=O)c2ccc(F)cc2)CC1`
Found: 0.70

Lookup: What value of log10(IC50) has been reported for the following compound? CC(C)C(CN1CCN(Cc2ccc(Cl)cc2)CC1)NS(=O)(=O)c1ccc(C(F)(F)F)cc1 (centres unmarked)
Found: 3.55

Lookup: What value of log10(IC50) has been reported for the following compound? `COc1ccc(C#N)cc1/C=C/C(=O)N[C@H](Cc1ccncc1)CN1CCC(C(=O)c2ccc(F)cc2)CC1`
Found: 1.40

Lookup: What value of log10(IC50) has been reported for the following compound? `COc1ccc(C#N)cc1/C=C/C(=O)N[C@H](CNC(C)=O)CN1CCC(Oc2ccc(F)cc2)CC1`
Found: 0.45

Lookup: What value of log10(IC50) has been reported for the following compound? `Cc1noc(C)c1NC(=O)NCCCCN(C)Cc1ccc(F)cc1`
Found: 3.19

Lookup: What value of log10(IC50) has been reported for the following compound? `CCOc1ccc(Br)cc1/C=C/C(=O)N[C@H](Cc1ccccc1)CN1CCC(C(=O)c2ccc(F)cc2)CC1`
Found: 1.11

Lookup: What value of log10(IC50) has been reported for the following compound? CC(C)C(CN1CCN(Cc2ccc(Cl)cc2)CC1)NC(=O)Nc1ccccc1 (centres unmarked)
Found: 3.23

Lookup: What value of log10(IC50) has been reported for the following compound? COc1cc(NC(=O)N[C@@H](CN2C3CCC2CC(Cc2ccc(Cl)cc2)C3)[C@@H](C)O)cc(OC)c1OC (some centres unmarked)
Found: 0.91

Lookup: What value of log10(IC50) has been reported for the following compound? O=C(NCCCN1CCC(Oc2ccc(F)cc2)C1)Nc1ccc(F)c(F)c1 (centres unmarked)
Found: 2.65

Lookup: What value of log10(IC50) has been reported for the following compound? COc1cc(N)c(Cl)cc1C(=O)NCC1CCN(CC(NC(=O)c2ccc(C)cc2)C(C)C)CC1 (racemic)
Found: 2.98

Lookup: What value of log10(IC50) has been reported for the following compound? `COc1ccc(Br)cc1/C=C/C(=O)NCCN1CCC(C(=O)c2ccc(F)cc2)CC1`
Found: 1.18

Lookup: What value of log10(IC50) has been reported for the following compound? `CCc1nnc(NC(=O)NCCCN2CC(Cc3ccc(Cl)cc3)C2)s1`
Found: 1.04

Lookup: What value of log10(IC50) has been reported for the following compound? `CCc1nnc(NC(=O)N[C@H](CO)CCN2CC(Oc3ccc(Cl)cc3)C2)s1`
Found: 0.85

Lookup: What value of log10(IC50) has been reported for the following compound? `COc1ccc(Br)cc1/C=C/C(=O)NCCN1CCC(Cc2ccc(F)cc2)CC1`
Found: 1.54

Lookup: What value of log10(IC50) has been reported for the following compound? `CC(C)[C@@H](CN1CCN(Cc2ccc(Cl)c(Cl)c2)CC1)NC(=O)c1ccc2ccccc2c1`
Found: 2.98

Lookup: What value of log10(IC50) has been reported for the following compound? `COc1cc(CC(=O)N[C@@H]2CCC[C@H]2N2CCC(Cc3ccc(Cl)cc3)CC2)cc(OC)c1OC`
Found: 3.17

Lookup: What value of log10(IC50) has been reported for the following compound? `O=C(CNC(=O)c1ccc(Cl)cc1)NCC1CN(Cc2ccc(Cl)c(Cl)c2)C1`
Found: 2.47

Lookup: What value of log10(IC50) has been reported for the following compound? `Cc1ccc(NC(=O)N[C@H](CN2CCC(Cc3ccc(Cl)c(Cl)c3)CC2)C(C)(C)C)cc1`
Found: 3.39

Lookup: What value of log10(IC50) has been reported for the following compound? CC(C)C(CN1CCN(Cc2ccc(Cl)c(Cl)c2)CC1)NC(=O)c1ccc2ccccc2n1 (centres unmarked)
Found: 3.14

Lookup: What value of log10(IC50) has been reported for the following compound? `Cc1cc(C)c(NC(=O)N[C@@H](CN2CCN(Cc3ccc(Cl)c(Cl)c3)CC2)C(C)C)c(C)c1`
Found: 3.53

Lookup: What value of log10(IC50) has been reported for the following compound? COc1cc(NC(=O)NC(C[N+]2(C)CCC(Cc3ccc(Cl)c(Cl)c3)CC2)C(C)C)cc(OC)c1OC (centres unmarked)
Found: 3.37

Lookup: What value of log10(IC50) has been reported for the following compound? CCOc1ccccc1NC(=O)NC(CN1CCN(Cc2ccc(Cl)c(Cl)c2)CC1)C(C)C (centres unmarked)
Found: 3.06

Lookup: What value of log10(IC50) has been reported for the following compound? COc1ccccc1NC(=S)NC(CN1CCN(Cc2ccc(Cl)c(Cl)c2)CC1)C(C)C (centres unmarked)
Found: 3.48

Lookup: What value of log10(IC50) has been reported for the following compound? `O=C(Nc1ccccc1N1CCN(Cc2ccc(Cl)c(Cl)c2)CC1)c1ccc(F)c(F)c1`
Found: 4.56
